Tested on: PBMC
TEST SUMMARY: Reversal of FK506-induced inhibition of cell proliferation in concanavalin A stimulated human PBMC at 1 uM measured after 72 hrs by CellTiter-Glo assay relative to control
Format: functional
Design: scale not given: the % may be the effect or the level left
MEASURED QUANTITY: Activity (%)
Numbers only here, please. The scale is %.

Input: Activity lookup needed for CO[C@H]1C[C@@H](C)C/C(C)=C/[C@@H](CCCC(=O)N2CC(N3CCOCC3)C2)C(=O)C[C@H](O)[C@@H](C)[C@@H](/C(C)=C/[C@@H]2CC[C@@H](O)[C@H](OC)C2)OC(=O)[C@@H]2CCCCN2C(=O)C(=O)[C@]2(O)O[C@H]1[C@@H](OC)C[C@H]2C , thanks.
Output: 49.3

Input: Same again, this time with CO[C@H]1C[C@@H](C)C/C(C)=C/[C@@H](CCCC(=O)N2CCN(Cc3ccccn3)CC2)C(=O)C[C@H](O)[C@@H](C)[C@@H](/C(C)=C/[C@@H]2CC[C@@H](O)[C@H](OC)C2)OC(=O)[C@@H]2CCCCN2C(=O)C(=O)[C@]2(O)O[C@H]1[C@@H](OC)C[C@H]2C
Output: 88.3

###

TARGET UNDER TEST: UniProt:P62942
TEST SUMMARY: Antagonist activity at recombinant human N-terminal His6-tagged FKBP12 expressed in Escherichia coli assessed as inhibition of FKBP12 binding to calcineurin at […] using […] pretreated for 1 hr followed by substrate addition measured after 1 hr by biomol green dye based spectrophotometric method
Calls of active or inactive are those of the source. No cut-off for these calls is given here.
MEASURED QUANTITY: inhibition

1. CC[C@@H]1/C=C(\C)C[C@H](C)C[C@H](OC)[C@H]2O[C@@](O)(C(=O)C(=O)N3CCCC[C@H]3C(=O)O[C@H](/C(C)=C/[C@@H]3CC[C@@H](OC(=O)N4CCN(C)CC4)[C@H](OC)C3)[C@H](C)[C@@H](O)CC1=O)[C@H](C)C[C@@H]2OC	inactive
2. CO[C@H]1C[C@@H](C)C/C(C)=C/[C@@H](CCCC(=O)N(CCO)CCO)C(=O)C[C@H](O)[C@@H](C)[C@@H](/C(C)=C/[C@@H]2CC[C@@H](O)[C@H](OC)C2)OC(=O)[C@@H]2CCCCN2C(=O)C(=O)[C@]2(O)O[C@H]1[C@@H](OC)C[C@H]2C	inactive

###

Test system: PBMC
TEST SUMMARY: Reversal of FK506-induced inhibition of cell proliferation in concanavalin A stimulated human PBMC at 1 uM measured after 72 hrs by CellTiter-Glo assay relative to control
Assay type: functional
Set-up: scale not given: the % may be the effect or the level left
MEASURED QUANTITY: Activity (%)
The figure you give is taken to be in %; do not add the unit.

Input: Consider the compound shown here: CC[C@@H]1/C=C(\C)C(O)[C@H](C)C[C@H](OC)[C@H]2O[C@@](O)(C(=O)C(=O)N3CCCC[C@H]3C(=O)O[C@H](/C(C)=C/[C@@H]3CC[C@@H](O)[C@H](OC)C3)[C@H](C)[C@@H](O)CC1=O)[C@H](C)C[C@@H]2OC (some centres undefined) What is its recorded Activity?
Output: 78.7

Input: Cool, now CO[C@H]1C[C@@H](C)C/C(C)=C/[C@@H](CC(=O)N2CCCC2)C(=O)C[C@H](O)[C@@H](C)[C@@H](/C(C)=C/[C@@H]2CC[C@@H](OC(=O)N3CC(O)C3)[C@H](OC)C2)OC(=O)[C@@H]2CCCCN2C(=O)C(=O)[C@]2(O)O[C@H]1[C@@H](OC)C[C@H]2C
Output: 63

Input: Continue with CO[C@H]1C[C@@H](C)C/C(C)=C/[C@@H](CC(=O)N2CCN(C)CC2)C(=O)C[C@H](O)[C@@H](C)[C@@H](/C(C)=C/[C@@H]2CC[C@@H](O)[C@H](OC)C2)OC(=O)[C@@H]2CCCCN2C(=O)C(=O)[C@]2(O)O[C@H]1[C@@H](OC)C[C@H]2C
Output: 102.8

Input: Same question for CO[C@H]1C[C@@H](C)C/C(C)=C/[C@@H](CCN(C)C)C(=O)C[C@H](O)[C@@H](C)[C@@H](/C(C)=C/[C@@H]2CC[C@@H](O)[C@H](OC)C2)OC(=O)[C@@H]2CCCCN2C(=O)C(=O)[C@]2(O)O[C@H]1[C@@H](OC)C[C@H]2C please.
Output: 105.6

###

Give measured pIC50 for each item. Keep answers brief.
TARGET UNDER TEST: Peptidyl-prolyl cis-trans isomerase FKBP1A (Homo sapiens, UniProt P62942)
Sequence (P62942 whole entry): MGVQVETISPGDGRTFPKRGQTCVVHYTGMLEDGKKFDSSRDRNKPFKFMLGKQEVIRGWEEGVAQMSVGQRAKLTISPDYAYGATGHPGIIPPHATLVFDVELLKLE
TEST SUMMARY: Antagonist activity at recombinant human N-terminal His6-tagged FKBP12 expressed in Escherichia coli assessed as inhibition of FK506 mediated FKBP12 binding to calcineurin using […] pretreated for 1 hr followed by substrate addition measured after 1 hr by biomol green dye based spectrophotometric method
Remember, pIC50 is on a log scale: it is -log10 of the molar concentration.

Input: I have this molecule here, CO[C@H]1C[C@@H](C)C/C(C)=C/[C@@H](CCCC(=O)N2CCN(Cc3ccccn3)CC2)C(=O)C[C@H](O)[C@@H](C)[C@@H](/C(C)=C/[C@@H]2CC[C@@H](O)[C@H](OC)C2)OC(=O)[C@@H]2CCCCN2C(=O)C(=O)[C@]2(O)O[C@H]1[C@@H](OC)C[C@H]2C , and I need its recorded pIC50.
Output: 5.89

Input: Same read-out for CO[C@H]1C[C@@H](C)C/C(C)=C/[C@@H](/C=C/CCCC(=O)N2CCNCC2)C(=O)C[C@H](O)[C@@H](C)[C@@H](/C(C)=C/[C@@H]2CC[C@@H](O)[C@H](OC)C2)OC(=O)[C@@H]2CCCCN2C(=O)C(=O)[C@]2(O)O[C@H]1[C@@H](OC)C[C@H]2C ?
Output: 5.74

Input: What do we get for CO[C@H]1C[C@@H](C)C/C(C)=C/[C@@H](CCCC(=O)N(CCO)CCO)C(=O)C[C@H](O)[C@@H](C)[C@@H](/C(C)=C/[C@@H]2CC[C@@H](O)[C@H](OC)C2)OC(=O)[C@@H]2CCCCN2C(=O)C(=O)[C@]2(O)O[C@H]1[C@@H](OC)C[C@H]2C ?
Output: 6.00

Input: Repeat for the following molecule: CO[C@H]1C[C@@H](C)C/C(C)=C/[C@@H](CCCC(=O)N2CC(O)C2)C(=O)C[C@H](O)[C@@H](C)[C@@H](/C(C)=C/[C@@H]2CC[C@@H](O)[C@H](OC)C2)OC(=O)[C@@H]2CCCCN2C(=O)C(=O)[C@]2(O)O[C@H]1[C@@H](OC)C[C@H]2C
Output: 5.95

Input: Subsequent entry: CC[C@@H]1/C=C(\C)C(O)[C@H](C)C[C@H](OC)[C@H]2O[C@@](O)(C(=O)C(=O)N3CCCC[C@H]3C(=O)O[C@H](/C(C)=C/[C@@H]3CC[C@@H](O)[C@H](OC)C3)[C@H](C)[C@@H](O)CC1=O)[C@H](C)C[C@@H]2OC (stereo partly specified)
Output: 5.88

Input: And for CO[C@H]1C[C@@H](C)C/C(C)=C/[C@@H](CCCC(=O)NCCc2ccccn2)C(=O)C[C@H](O)[C@@H](C)[C@@H](/C(C)=C/[C@@H]2CC[C@@H](O)[C@H](OC)C2)OC(=O)[C@@H]2CCCCN2C(=O)C(=O)[C@]2(O)O[C@H]1[C@@H](OC)C[C@H]2C ?
Output: 6.07

###

Can you tell me pIC50 for the items I'm about to list?
Tested on: Vero 76
TEST SUMMARY: Cytotoxicity against African green monkey Vero 76 cells
Format: cell-based
MEASUREMENT CONDITIONS: Chlorocebus sabaeus
pIC50: −log10 of the molar value.

Input: Return reported pIC50; argument: CO[C@H]1C[C@@H](C)C/C(C)=C/[C@@H](CCCC(=O)N2CC(O)C2)C(=O)C[C@H](O)[C@@H](C)[C@@H](/C(C)=C/[C@@H]2CC[C@@H](O)[C@H](OC)C2)OC(=O)[C@@H]2CCCCN2C(=O)C(=O)[C@]2(O)O[C@H]1[C@@H](OC)C[C@H]2C
Output: < 4.00

Input: # iterate: CO[C@H]1C[C@@H](C)C/C(C)=C/[C@@H](CC(=O)N2CCCC2)C(=O)C[C@H](O)[C@@H](C)[C@@H](/C(C)=C/[C@@H]2CC[C@@H](OC(=O)N3CC(O)C3)[C@H](OC)C2)OC(=O)[C@@H]2CCCCN2C(=O)C(=O)[C@]2(O)O[C@H]1[C@@H](OC)C[C@H]2C
Output: < 4.00

Input: Also CO[C@H]1C[C@@H](C)C/C(C)=C/[C@@H](CC(=O)N2CCCC2)C(=O)C[C@H](O)[C@@H](C)[C@@H](/C(C)=C/[C@@H]2CC[C@@H](O)[C@H](OC)C2)OC(=O)[C@@H]2CCCCN2C(=O)C(=O)[C@]2(O)O[C@H]1[C@@H](OC)C[C@H]2C ?
Output: < 4.00

# credit: ChEMBL document CHEMBL4017474
